Cited source for all entries: ChEMBL document CHEMBL5625167

Tested on: Staphylococcus aureus
Assay: Antibacterial activity against Staphylococcus aureus ATCC 25923 incubated for 18 hrs by resazurin dye based broth microdilution method
Assay type: functional
value-kind: MIC (µM)
Only the number, expressed in µM, is required.

Sample records with MIC:
molecule | experimental-target | unit-abbreviation | MIC
CCCCCCCCCCCCCCCC(COCc1ccccc1)NCC (stereo unspecified) | Staphylococcus aureus | µM | 16
CCCCCCCCCCCCCCCC(CNCCCCCC)NC(=O)OC(C)(C)C (stereo unspecified) | Staphylococcus aureus | µM | 256
CCCCCCCCCCCCCCCC(CO)NCCCCCCCCCC (stereo unspecified) | Staphylococcus aureus | µM | 512

-- ask Recall the recorded MIC for CCCCCCCCCCCCCCCCCC(N)CO (stereo unspecified) with Staphylococcus aureus and state it.
-- reply 256

-- ask Recall the recorded MIC for Cc1onc(-c2ccccc2)c1C(=O)N[C@@H]1C(=O)N2[C@@H]1SC(C)(C)[C@@H]2C(=O)O with Staphylococcus aureus and state it.
-- reply 0.25
